- EXPERIMENT_SUMMARY: CREB reporter modulators without forskolin, primary screen, cell-based, PC12, CRE-LacZ reporter, unstimulated (AID 1145)
- REPORTED_CONDITIONS: no forskolin, luminescence, 4.5 h, higher = more signal, called active from +8 up or from −8 down
ENDPOINT_NAME: z-score
Numbers only.

>  <MOLECULE>
COC(=O)[C@@]1(Cc2ccccc2)[C@H]2c3cc(C(=O)N4CCCC4)n(Cc4ccccn4)c3C[C@H]2CN1C(=O)c1ccccc1

>  <z-score>
0.201

$$$$
>  <MOLECULE>
O=C1[C@H]2[C@H]3[C@H](O)[C@H](O)CC(=NO[C@@H]4O[C@H](CO)[C@@H](O)[C@H](O)[C@H]4O)[C@H]3CC[C@H]2C(=O)N1Cc1ccccc1

>  <z-score>
-0.474

$$$$
>  <MOLECULE>
CC(C)NC(=O)[C@@]1(c2ccc([N+](=O)[O-])cc2)CC(=O)N(CC23CC4CC(CC(C4)C2)C3)[C@@H]1c1ccc(CO)cc1I

>  <z-score>
0.531

$$$$
>  <MOLECULE>
COCCNC(=O)OCC1CCCC2(CC(OC(=O)NCCc3ccc(F)cc3)CC(CCC(=O)N[C@@H](C)C(=O)OC)O2)O1 (some centres undefined)

>  <z-score>
0.374

$$$$
>  <MOLECULE>
O=C(NN=C1C[C@@H](O)[C@@H](O)[C@@H]2[C@@H]3C(=O)N(c4ccc(F)cc4F)C(=O)[C@@H]3CC[C@@H]12)OCc1ccccc1

>  <z-score>
0.16

$$$$

Quick batch: z-score for everything below.
1. COCC1=C2[C@@H](CCc3ccccc3)OB(O)C[C@@H]2n2c(=O)n(-c3ccccc3)c(=O)n2C1
2. COCCOC(=O)N1C(=O)[C@@]2(c3cc(C#Cc4ccc(OC)cc4)ccc31)[C@H](C(=O)N1CCN(c3ncccn3)CC1)[C@H]1C(=O)O[C@H](c3ccccc3)[C@H](c3ccccc3)N1[C@@H]2c1ccc(OCCO)cc1
3. CC(C)=CCCC(C)=CCON=C1C[C@@H](O)[C@@H](O)[C@@H]2[C@@H]3C(=O)N(C[C@@H]4CCCO4)C(=O)[C@@H]3CC[C@@H]12
4. CC1CC/C=C\[C@H]2OC34C=CCN(C(C)C)C(=O)[C@H]3N(CCCO)C(=O)[C@@H]4C2C(=O)O1 (some centres undefined)
5. CO[C@@H]1COC(=O)CC=C[C@@H](C)[C@@H]2C=C[C@H](O)[C@@H](COC(=O)CCC[C@H]1C)O2
6. CCCNC(=O)OC[C@H]1O[C@H](CCON=CC[C@@H]2C=C[C@H](OC(C)=O)[C@@H](COC(C)=O)O2)C=C[C@@H]1Oc1ccc(OC)cc1
7. C#CCCCON=C1C[C@@H](O)[C@@H](O)[C@@H]2[C@@H]3C(=O)N(Cc4ccccc4)C(=O)[C@@H]3CC[C@H]12

1: 2.22; 2: -0.606; 3: -0.659; 4: 0.601; 5: -2.36; 6: 0.345; 7: 0.793

Quick batch: z-score for everything below.
1. C[C@@H]1CC[C@H]2C(=O)O[C@H](COc3ccc(C(C)(C)C)cc3)CN2[C@H]1c1ccc(Br)cc1
2. CO[C@H]1COC(=O)[C@H](C)COC(=O)CC=C[C@@H](C)[C@H](OC)COC(=O)CC=C[C@@H]1C

1: 0.262; 2: -0.474
